Entries and their protein stability index values follow.
B1: INTS3 (parent)
chain: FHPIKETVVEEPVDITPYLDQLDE

Variants of: B1
assayRemarks: protein stability index of a GFP-peptide fusion (GPS, HEK-293T) (PSI 1-6); higher = more stable;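 note: lentivirally expressed fusions sorted by FACS into six bins by GFP to DsRed ratio, PSI derived from sequencing read proportions per bin multiplied by bin number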
conditionSummary: c terminus: a fixed tail appended
endpointLabel: protein stability index

mutantLabel | numericValue
E6N | 2.67
P12I | 2.93
T7E | 4.19
D14S | 2.75
T7W | 2.89
V9A | 3.72
P12V | 3.06
L22H | 3.5
L19S | 3.98
H2Q | 4.7
Y18R | 3.58
